# condition-label: in isopropanol, 293.15 K
measurement-kind: solubility (mole fraction)
Answer using only a numeral; do not append any unit.

Return solubility (mole fraction) for the following compound: CCOc1nc2cccc(C(=O)OC(C)OC(=O)OC3CCCCC3)c2n1Cc1ccc(-c2ccccc2-c2nn[nH]n2)cc1 (stereo unspecified) 0.0007

###

# condition-label: in acetone, 308.15 K
measurement-kind: solubility (mole fraction)
Answer using only a numeral; do not append any unit.

Return solubility (mole fraction) for the following compound: CCOc1nc2cccc(C(=O)OC(C)OC(=O)OC3CCCCC3)c2n1Cc1ccc(-c2ccccc2-c2nn[nH]n2)cc1 (stereo unspecified) 0.0111

###

# condition-label: in acetone, 288.15 K
measurement-kind: solubility (mole fraction)
Answer using only a numeral; do not append any unit.

Return solubility (mole fraction) for the following compound: CCOc1nc2cccc(C(=O)OC(C)OC(=O)OC3CCCCC3)c2n1Cc1ccc(-c2ccccc2-c2nn[nH]n2)cc1 (stereo unspecified) 0.00566

###

# condition-label: in acetonitrile, 303.15 K
measurement-kind: solubility (mole fraction)
Answer using only a numeral; do not append any unit.

Return solubility (mole fraction) for the following compound: CCOc1nc2cccc(C(=O)OC(C)OC(=O)OC3CCCCC3)c2n1Cc1ccc(-c2ccccc2-c2nn[nH]n2)cc1 (stereo unspecified) 0.00091

###

# condition-label: in n-propanol, 293.15 K
measurement-kind: solubility (mole fraction)

Return solubility (mole fraction) for the following compound: CCOc1nc2cccc(C(=O)OC(C)OC(=O)OC3CCCCC3)c2n1Cc1ccc(-c2ccccc2-c2nn[nH]n2)cc1 (stereo unspecified) 0.00132

###

# condition-label: in 2-butanone, 298.15 K
measurement-kind: solubility (mole fraction)
Answer using only a numeral; do not append any unit.

Return solubility (mole fraction) for the following compound: CCOc1nc2cccc(C(=O)OC(C)OC(=O)OC3CCCCC3)c2n1Cc1ccc(-c2ccccc2-c2nn[nH]n2)cc1 (stereo unspecified) 0.01

###

# condition-label: in isopropanol, 333.15 K
measurement-kind: solubility (mole fraction)

Return solubility (mole fraction) for the following molecule: CCOc1nc2cccc(C(=O)OC(C)OC(=O)OC3CCCCC3)c2n1Cc1ccc(-c2ccccc2-c2nn[nH]n2)cc1 (stereo unspecified) 0.00667

###

# condition-label: in ethanol, 323.15 K
measurement-kind: solubility (mole fraction)
Answer using only a numeral; do not append any unit.

Return solubility (mole fraction) for the following molecule: CCOc1nc2cccc(C(=O)OC(C)OC(=O)OC3CCCCC3)c2n1Cc1ccc(-c2ccccc2-c2nn[nH]n2)cc1 (stereo unspecified) 0.00458

###

# condition-label: in 2-butanone, 283.15 K
measurement-kind: solubility (mole fraction)

Return solubility (mole fraction) for the following compound: CCOc1nc2cccc(C(=O)OC(C)OC(=O)OC3CCCCC3)c2n1Cc1ccc(-c2ccccc2-c2nn[nH]n2)cc1 (stereo unspecified) 0.00653

###

# condition-label: in 2-butanone, 278.15 K
measurement-kind: solubility (mole fraction)
Answer using only a numeral; do not append any unit.

Return solubility (mole fraction) for the following compound: CCOc1nc2cccc(C(=O)OC(C)OC(=O)OC3CCCCC3)c2n1Cc1ccc(-c2ccccc2-c2nn[nH]n2)cc1 (stereo unspecified) 0.00575

###

# condition-label: in 2-butanone, 318.15 K
measurement-kind: solubility (mole fraction)
Answer using only a numeral; do not append any unit.

Return solubility (mole fraction) for the following molecule: CCOc1nc2cccc(C(=O)OC(C)OC(=O)OC3CCCCC3)c2n1Cc1ccc(-c2ccccc2-c2nn[nH]n2)cc1 (stereo unspecified) 0.019

###

# condition-label: in acetonitrile, 293.15 K
measurement-kind: solubility (mole fraction)
Answer using only a numeral; do not append any unit.

Return solubility (mole fraction) for the following molecule: CCOc1nc2cccc(C(=O)OC(C)OC(=O)OC3CCCCC3)c2n1Cc1ccc(-c2ccccc2-c2nn[nH]n2)cc1 (stereo unspecified) 0.00058

###

# condition-label: in isopropanol, 323.15 K
measurement-kind: solubility (mole fraction)
Answer using only a numeral; do not append any unit.

Return solubility (mole fraction) for the following molecule: CCOc1nc2cccc(C(=O)OC(C)OC(=O)OC3CCCCC3)c2n1Cc1ccc(-c2ccccc2-c2nn[nH]n2)cc1 (stereo unspecified) 0.00391

###

# condition-label: in 2-butanone, 303.15 K
measurement-kind: solubility (mole fraction)

Return solubility (mole fraction) for the following molecule: CCOc1nc2cccc(C(=O)OC(C)OC(=O)OC3CCCCC3)c2n1Cc1ccc(-c2ccccc2-c2nn[nH]n2)cc1 (stereo unspecified) 0.0118

###

# condition-label: in 2-butanone, 313.15 K
measurement-kind: solubility (mole fraction)
Answer using only a numeral; do not append any unit.

Return solubility (mole fraction) for the following compound: CCOc1nc2cccc(C(=O)OC(C)OC(=O)OC3CCCCC3)c2n1Cc1ccc(-c2ccccc2-c2nn[nH]n2)cc1 (stereo unspecified) 0.016

// data source = BigSolDB 2.1
